Listed next: entries and their corresponding IC50 (nM), inhibition of G-CSF-mediated proliferation of BaF3 cells.
Target: T1, human G-CSFR expressed on cells (Homo sapiens, UniProt Q99062 25-836)
T1 sequence: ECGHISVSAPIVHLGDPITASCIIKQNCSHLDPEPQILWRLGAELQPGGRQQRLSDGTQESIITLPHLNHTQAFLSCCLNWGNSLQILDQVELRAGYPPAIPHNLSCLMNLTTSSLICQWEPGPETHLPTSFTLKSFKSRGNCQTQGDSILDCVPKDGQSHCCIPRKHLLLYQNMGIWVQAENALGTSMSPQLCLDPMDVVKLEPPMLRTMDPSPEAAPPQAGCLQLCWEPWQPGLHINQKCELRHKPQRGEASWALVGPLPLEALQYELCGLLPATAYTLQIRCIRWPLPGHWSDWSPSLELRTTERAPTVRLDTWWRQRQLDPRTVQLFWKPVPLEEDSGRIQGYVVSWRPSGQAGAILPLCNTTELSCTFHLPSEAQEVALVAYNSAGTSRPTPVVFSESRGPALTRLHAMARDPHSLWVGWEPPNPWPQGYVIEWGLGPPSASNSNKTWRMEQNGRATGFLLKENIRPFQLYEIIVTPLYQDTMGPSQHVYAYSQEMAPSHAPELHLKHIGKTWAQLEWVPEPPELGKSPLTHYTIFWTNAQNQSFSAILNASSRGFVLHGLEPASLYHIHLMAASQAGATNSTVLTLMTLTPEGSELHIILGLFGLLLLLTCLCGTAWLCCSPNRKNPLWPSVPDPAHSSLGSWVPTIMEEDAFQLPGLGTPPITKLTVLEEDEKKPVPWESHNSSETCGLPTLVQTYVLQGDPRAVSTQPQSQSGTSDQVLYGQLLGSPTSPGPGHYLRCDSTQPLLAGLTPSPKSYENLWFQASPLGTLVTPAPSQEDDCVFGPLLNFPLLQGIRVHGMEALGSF
Assay: cell-based or functional assay
readout: IC50 (nM), inhibition of G-CSF-mediated proliferation of BaF3 cells

binder	reported_measurement
C1.2G-802 (antibody, human IgG4, V domains shown, HCDR3 wt (VH of C1.2G); also called antibody 802) VH: EVQLLESGGGLVQPGGSLRLSCAASGFTFSLYWMGWVRQAPGKGLEWVSSISSSGGVTPYADSVKGRFTISRDNSKNTLYLQMNSLRAEDTAVYYCAKLGELGWFDPWGQGTLVTVSS VL: DIQMTQSPSSLSASVGDRVTITCRASQGISSYLNWYQQKPGKAPKLLIYYASNLQNGVPSRFSGSGSGTDFTLTISSLQPEDFATYYCHFSMQYPLTFGGGTKVEIK	0.26
C1.2G-987 (antibody, human IgG4, V domains shown, also called antibody 987) VH: EVQLLESGGGLVQPGGSLRLSCAASGFTFSLYWMGWVRQAPGKGLEWVSSISSSGGVTPYADSVKGRFTISRDNSKNTLYLQMNSLRAEDTAVYYCAKLGELGQSSAWGQGTLVTVSS VL: DIQMTQSPSSLSASVGDRVTITCRASQGISSYLNWYQQKPGKAPKLLIYYASNLQNGVPSRFSGSGSGTDFTLTISSLQPEDFATYYCQQSIQYPQMFGGGTKVEIK	0.88
